Assay: ATPLite cytotoxicity assay in LMH cells
Conditions: chicken, CC50, LMH cells, 18–24 h, presence of 250 μM DFO
Structures can show the parent of a compound that is named as a salt.
metric: CC50 (µM)
One number for each entry, in µM.

compound: C[C@](N)(Cc1ccc(O)c(O)c1)C(=O)O
metric: CC50
units_symbol: µM
readout_value: 164

Turning now to a further record.
Need CC50, item CCN(CCO)CCCC(C)Nc1ccnc2cc(Cl)ccc12 (centres unmarked) [hydroxychloroquine, hydroxychloroquine sulfate]
381
